For each entry below, report its IC50 value.
Target: CYP3A4 (Homo sapiens)
Sequence (P08684 whole entry): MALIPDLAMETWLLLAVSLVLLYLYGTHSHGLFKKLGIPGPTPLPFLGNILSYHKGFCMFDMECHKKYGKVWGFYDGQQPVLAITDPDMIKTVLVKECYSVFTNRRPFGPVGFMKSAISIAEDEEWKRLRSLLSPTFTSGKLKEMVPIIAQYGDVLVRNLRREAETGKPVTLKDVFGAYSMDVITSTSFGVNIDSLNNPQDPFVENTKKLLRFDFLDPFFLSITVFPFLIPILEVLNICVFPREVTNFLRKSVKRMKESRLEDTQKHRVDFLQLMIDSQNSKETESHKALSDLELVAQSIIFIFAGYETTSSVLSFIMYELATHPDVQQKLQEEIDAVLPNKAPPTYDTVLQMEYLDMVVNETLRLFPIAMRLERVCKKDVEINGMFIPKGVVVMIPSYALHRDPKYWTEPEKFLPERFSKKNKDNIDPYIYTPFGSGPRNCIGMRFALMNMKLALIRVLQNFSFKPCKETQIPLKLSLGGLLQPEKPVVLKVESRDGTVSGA
Assay: Determination of CYP3A4 inhibitory activity (human liver microsome, Luciferin-IPA)
Conditions: CYP3A4 IC50 (nM), 37° C. 11 minutes

Exam item: Report its IC50 with CYP3A4 (Homo sapiens) as the test system: COc1cncc(CN(CCc2ccc(NC(=O)c3cc(OC)c(OC)cc3NC(=O)c3ccc4ccccc4n3)cc2)Cc2ccc3c(cnn3C)c2)c1 [Compound 53]
Marked response: 100 to 250 nM

Exam item: Report measured IC50 on CYP3A4 (Homo sapiens); entry: CCOc1cncc(CN(CCc2ccc(NC(=O)c3cc(OC)c(OC)cc3NC(=O)c3cnc4ccccc4n3)cc2)Cc2ccc3c(cnn3C)c2)c1 [Compound 74]
Marked response: 250 to 500 nM

Exam item: Report its IC50 with CYP3A4 (Homo sapiens) as the test system: COc1cc(NC(=O)c2cc(=O)c3ccccc3o2)c(C(=O)NCc2ccc(CN(Cc3ccc4c(cnn4C)c3)Cc3ccccc3-n3ccnc3)cc2)cc1OC [Compound 232]
Marked response: < 100 nM

Exam item: Write down the reported IC50 (system: CYP3A4 (Homo sapiens)) of COc1cc(NC(=O)c2cc(=O)c3ccccc3o2)c(C(=O)Nc2ccc(CCN(Cc3ccc4c(cnn4C)c3)Cc3cccnc3N)cc2)cc1OC [Compound 226]
Marked response: > 1000 nM

Exam item: Report its IC50 with CYP3A4 (Homo sapiens) as the test system: COc1cc(NC(=O)c2cc(=O)c3ccccc3o2)c(C(=O)NCc2ccc(CN(Cc3ccc(-n4ccnc4)cc3)Cc3ccc4c(cnn4C)c3)cc2)cc1OC [Compound 237]
Marked response: 100 to 250 nM

Exam item: Output reported IC50 of the molecule COc1cc(NC(=O)c2cc(=O)c3ccccc3o2)c(C(=O)Nc2ccc(CCN(Cc3cncc(O)c3)Cc3ccc4c(c3)c(C)nn4C)cc2)cc1OC [Compound 247] on CYP3A4 (Homo sapiens).
Marked response: 100 to 250 nM

Exam item: Write down measured IC50 (CYP3A4 (Homo sapiens)) for this molecule. COC(=O)c1ccc(C(=O)Nc2ccc(CCN(C)Cc3ccc4c(cnn4C)c3)cc2)c(NC(=O)c2ccccn2)c1 [Compound 277]
Marked response: > 1000 nM

Exam item: Answer briefly: IC50 recorded on CYP3A4 (Homo sapiens) for CCCN(CCc1ccc(NC(=O)c2cc(OC)c(OC)cc2NC(=O)c2cc(=O)c3ccccc3o2)cc1)Cc1cccc(-n2ccnc2)c1 [Compound 90]
Marked response: 250 to 500 nM

Exam item: Provide IC50, recorded with CYP3A4 (Homo sapiens), of COc1cc(NC(=O)c2cnc3ccccc3n2)c(C(=O)Nc2ccc(CCN(Cc3ccc4cnn(C)c4c3)Cc3ccc4cnn(C)c4c3)cc2)cc1OC [Compound 168]
Marked response: > 1000 nM

Exam item: Give reported IC50 for COc1cc(NC(=O)c2cc(=O)c3ccccc3o2)c(C(=O)Nc2ccc(CCN(Cc3cccc(OC[C@@H]4CO[C@@](Cn5ccnc5)(c5ccc(Cl)cc5Cl)O4)c3)Cc3ccc4c(cnn4C)c3)cc2)cc1OC [Compound 242] (CYP3A4 (Homo sapiens))
Marked response: 250 to 500 nM

Exam item: Please indicate recorded IC50 of COc1cc(NC(=O)c2cnc3ccccc3c2)c(C(=O)Nc2ccc(CCN(Cc3cccc(-n4ccnc4)c3)Cc3ccc4c(cnn4C)c3)cc2)cc1OC [Compound 146] measured with CYP3A4 (Homo sapiens).
Marked response: 500 to 1000 nM

Exam item: Check CYP3A4 (Homo sapiens) data and give IC50 for COc1cc(NC(=O)c2cc(=O)c3ccccc3o2)c(C(=O)Nc2ccc(CCN(Cc3cncc(OCC(C)C)c3)Cc3ccc4c(cnn4C)c3)cc2)cc1OC [Compound 239] .
Marked response: > 1000 nM

Exam item: Under CYP3A4 (Homo sapiens), report IC50 for COc1cc(NC(=O)c2cc(=O)c3ccccc3o2)c(C(=O)Nc2ccc(CCN(C)Cc3ccc(-c4ncco4)cc3)cc2)cc1OC [Compound 114]
Marked response: > 1000 nM

Exam item: GET IC50 | system: CYP3A4 (Homo sapiens) | item: COc1cc(NC(=O)C2CC(=O)c3ccccc3O2)c(C(=O)Nc2ccc(CCN(C)Cc3ccc(-c4cccnc4)cc3)cc2)cc1OC (centres unmarked) [Compound 88]
Marked response: 500 to 1000 nM
